TARGET_OF_ASSAY: KRas G12D (Homo sapiens, UniProt P01116, G12D)
Sequence (P01116 1-169 isoform P01116-2 G12D): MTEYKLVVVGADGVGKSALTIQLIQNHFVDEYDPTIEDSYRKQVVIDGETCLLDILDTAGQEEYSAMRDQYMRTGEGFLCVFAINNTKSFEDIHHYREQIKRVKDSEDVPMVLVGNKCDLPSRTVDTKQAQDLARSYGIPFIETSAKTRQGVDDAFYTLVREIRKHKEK
METHOD_NOTES: KRas G12D Binding Assay (TR-FRET displacement of labeled tracer)
CONDITION_NOTES: TR-FRET displacement of Cy5 labelled tracer, Biotinylated GDP-loaded KRAS G12D (amino acids 1:169), 60 minute incubation at 22° C.
Structures can show the parent of a compound that is named as a salt.
REPORTED_ENDPOINT: IC50 (nM)

Known IC50 results, listed for orientation:
COMPOUND	REPORTED_ENDPOINT	QUANTITATIVE_RESULT
CCc1cccc2cc(O)cc(-c3ncc4c(NCC5(N(C)C)CCCC5)nc(OC[C@@]56CCCN5C[C@H](F)C6)nc4c3F)c12 [Example 34, dihydrochloride]	IC50	1.1
CN(CC1(N(C)C)CCC1)c1nc(OC[C@@]23CCCN2C[C@H](F)C3)nc2c(F)c(-c3cc(O)cc4ccccc34)ncc12 [Example 28]	IC50	609
NC1CC(Nc2nc(OCC34CCCN3CCC4)nc3c(F)c(-c4cccc5cccc(F)c45)ncc23)C12CCC2 (stereo not drawn) [Example 62]	IC50	203
CN(C)C1(CNc2nc(OCC34CCCN3CCC4)nc3c(F)c(-c4cccc5cccc(F)c45)ncc23)CCOCC1 [Example 53]	IC50	7160

[P] C#Cc1c(F)ccc2cccc(-c3ncc4c(NCC5(N(C)C)CCC5)nc(OCC56CCCN5CCC6)nc4c3F)c12 [Example 56]
[Q] CN(C)CCNc1nc(OC[C@@]23CCCN2C[C@H](F)C3)nc2c(F)c(-c3cc(O)cc4ccccc34)ncc12 (racemic) [Example 39, bis(2,2,2-trifluoroacetate)]
Query: Lab note: check whether P or Q has the lower measured IC50. Please indicate the selected item by its label.
Reply: P
(P: 2.6 nM, Q: 521 nM)

* * *

TARGET_OF_ASSAY: KRas G12D (Homo sapiens, UniProt P01116, G12D)
METHOD_NOTES: KRas G12D Binding Assay (TR-FRET displacement of labeled tracer)
CONDITION_NOTES: TR-FRET displacement of Cy5 labelled tracer, Biotinylated GDP-loaded KRAS G12D (amino acids 1:169), 60 minute incubation at 22° C.
REPORTED_ENDPOINT: IC50 (nM)

COMPOUND	IC50 / nM
CC(C)c1cccc2cccc(-c3ncc4c(NCC5(N(C)C)CCC5)nc(OCC56CCCN5C[C@H](F)C6)nc4c3F)c12 (mixture of isomers) [Example 25]	1640
CC(C)(O)CNc1nc(OC[C@@]23CCCN2C[C@H](F)C3)nc2c(F)c(-c3cccc4cccc(Cl)c34)ncc12 [Example 15]	3150

[1] CN(C)C1(CNc2nc(OC[C@@]34CCCN3C[C@H](F)C4)nc3c(F)c(-c4cccc5cccc(F)c45)ncc23)CCC1 [Example 22]
[2] CCc1c(F)ccc2cc(O)cc(-c3ncc4c(NCC5(N(C)C)CCC5)nc(OC[C@]56CCCN5[C@@H](COC(=O)N(C)C)CC6)nc4c3F)c12 [Example 46]
Query: Pick one, 1 or 2 : lowest reported IC50. Please reply using the label of the selected record.
Reply: 2
(2: 0.7 nM, 1: 1320 nM)

[A] CN(C)C1(CNc2nc(OC[C@@]34CCCN3C[C@H](F)C4)nc3c(F)c(-c4cc(O)cc5ccccc45)ncc23)CCCCC1 [Example 30]
[B] C#Cc1cccc2cccc(-c3ncc4c(NCC5(N(C)C)CCC5)nc(OC[C@@]56CCCN5C[C@H](F)C6)nc4c3F)c12 [Example 20, bis(2,2,2-trifluoroacetate)]
Query: Between A and B , which one shows the smaller IC50 number? Identify your selection by its label.
Reply: B
(B: 22 nM, A: 1580 nM)
